// reported inhibition for each item listed
target: Large T antigen (Simian virus 40); test: SV40 large T antigen inhibitors, biochemical (AID 1903); settings: SV40 large T antigen ATPase/helicase inhibition assay; at 20 µM; hits give high values
Hit rate of the full screen: of about 310,000 compounds, about 1,200 (0.39%) were called active. Only a sample is shown. Entries with a potency or affinity are not part of this list.
Enter your answer as a number in %; do not include the unit.

Some compounds with recorded inhibition:
The recorded inhibition with Large T antigen (Simian virus 40) for `Cc1ccc(Nc2n[nH]c(C)c2[N+](=O)[O-])cc1C` was 4.58

The recorded inhibition with Large T antigen (Simian virus 40) for `Cc1ccc(Nc2n[nH]c(C)c2[N+](=O)[O-])cc1` was -4.15

The recorded inhibition with Large T antigen (Simian virus 40) for `O=C(Nc1ccc2c(c1)OCO2)c1ccc(NC2CC2)c([N+](=O)[O-])c1` was 12.5

The recorded inhibition with Large T antigen (Simian virus 40) for CN(C)c1ccc(C2/C(=C(/O)c3ccc(Br)cc3)C(=O)C(=O)N2C)cc1 (stereo unspecified) was 8.15

The recorded inhibition with Large T antigen (Simian virus 40) for `COc1ccc(-c2cn(Cc3ccc(C)cc3)nn2)cc1` was 5.41

More entries:
The recorded inhibition with Large T antigen (Simian virus 40) for CCOc1ccc(NC(=O)NCC2CCN(c3ccc(OC)cc3)C2)cc1 (stereo unspecified) was 22.4

The recorded inhibition with Large T antigen (Simian virus 40) for C#CCOCCOCCOCCNc1nc(N2CCN(C(=O)C([C@@H](C)CC)n3cc(C(N)Cc4ccc(O)cc4)nn3)CC2)nc(N2CCN(C(=O)[C@H](CCC(=O)O)n3cc(C(N)Cc4ccc(O)cc4)nn3)CC2)n1 (stereo partly specified) was 18.6

The recorded inhibition with Large T antigen (Simian virus 40) for `CCN1CCN(C(=O)Cn2ncc3c([nH]c4ccc(C)cc43)c2=O)CC1` was 9.03

The recorded inhibition with Large T antigen (Simian virus 40) for `O=C(O)C1=C[C@H](c2ccc3c(c2)OCO3)C[C@H](OCc2ccc(CO)cc2)O1` was 9.17

The recorded inhibition with Large T antigen (Simian virus 40) for COc1ccc(N2CCC(CNC(=S)Nc3cccc(OC)c3)C2)cc1 (stereo unspecified) was 19.4

The recorded inhibition with Large T antigen (Simian virus 40) for CCOc1ccccc1N1CC(C(=O)NCCOc2ccccc2OC)CC1=O (stereo unspecified) was 3.13
